- System: 843782-103-R-J1-PDC complex spheroid viability
- protocol-description: Anticancer human tumor 843782-103-R-J1-PDC patient-derived lung adenocarcinoma cell line growth inhibition [RAS]
- particulars: second compound 0.01 µM; first compound 1 µM; stronger effect = lower value
Listing of recorded viability, T/C by entry.
Reply numerically in %, unit not repeated.

Recorded viability, T/C, per entry:
>>> recorded_number("CCN1CCN(Cc2ccc(Nc3ncc(F)c(-c4cc(F)c5nc(C)n(C(C)C)c5c4)n3)nc2)CC1 + C=CC(=O)N1CCN(c2nc(OCC3CCCN3C)nc3c(F)c(-c4nc(N)cc(C)c4C(F)(F)F)c(Cl)cc23)C(C)C1")
43
>>> recorded_number("CC1(O)CCCC1n1c(=O)c(C(F)F)cc2cnc(NC3CCN(S(C)(=O)=O)CC3)nc21 (stereo not drawn) + C=CC(=O)N1CCN(c2nc(OCC3CCCN3C)nc3c(F)c(-c4nc(N)cc(C)c4C(F)(F)F)c(Cl)cc23)C(C)C1")
29.2

Q: Can you look up viability, T/C on 843782-103-R-J1-PDC complex spheroid viability for C[C@@H](NC(=O)c1ncnc(N)c1Cl)c1ncc(C(=O)Nc2cc(C(F)(F)F)c(Cl)cn2)s1 + C=CC(=O)N1CCN(c2nc(OCC3CCCN3C)nc3c(F)c(-c4nc(N)cc(C)c4C(F)(F)F)c(Cl)cc23)C(C)C1 ?
Result: 88.5

====

- Tested on: 843782-103-R-J1-PDC complex spheroid viability
- protocol-description: Anticancer human tumor 843782-103-R-J1-PDC cell line growth inhibition [RAS];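 also: viability read after seven days of compound exposure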
- particulars: second compound 0.1 µM; first compound 3.16 µM; stronger effect = lower value
measure-name: viability, T/C (%)
Reply numerically in %, unit not repeated.

Recorded viability, T/C, per entry:
>>> recorded_number("CC(C)NCC(C(=O)N1CCN(c2ncnc3c2C(C)CC3O)CC1)c1ccc(Cl)cc1 (stereo not drawn) + C=CC(=O)N1CCN(c2nc(OCC3CCCN3C)nc3c(F)c(-c4nc(N)cc(C)c4C(F)(F)F)c(Cl)cc23)C(C)C1")
17.2
>>> recorded_number("CC(=O)OC12COC1CC(O)C1(C)C(=O)C(O)C3=C(C)C(OC(=O)C(O)C(NC(=O)OC(C)(C)C)c4ccccc4)CC(O)(C(OC(=O)c4ccccc4)C21)C3(C)C (stereo not drawn) + C#Cc1c(F)ccc2cc(O)cc(-c3ncc4c(N5CC6CCC(C5)N6)nc(OCC56CCCN5CC(F)C6)nc4c3F)c12")
5.28

Q: What value of viability, T/C has been reported for the following compound? NC1c2ccccc2OC12CCN(c1cnc3c(N4CCCc5ncccc54)n[nH]c3n1)CC2 (stereo not drawn) + C#Cc1c(F)ccc2cc(O)cc(-c3ncc4c(N5CC6CCC(C5)N6)nc(OCC56CCCN5CC(F)C6)nc4c3F)c12
Result: 37.9

====

Listing of recorded pIC50 by entry.
- System: 843782-103-R-J1-PDC complex spheroid viability
- protocol-description: Anticancer human tumor 843782-103-R-J1-PDC cell line growth inhibition [RAS];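 also: viability read after seven days of compound exposure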
- particulars: curve of first compound; second compound 0.0316 µM
Here pIC50 is given on a logarithmic scale as minus log10 of the concentration in mol/L.

Recorded pIC50, per entry:
>>> recorded_number("Nc1ccn(C2OC(CO)C(O)C2(F)F)c(=O)n1 (stereo not given) + C=CC(=O)N1CCN(c2nc(OCC3CCCN3C)nc3c(F)c(-c4nc(N)cc(C)c4C(F)(F)F)c(Cl)cc23)C(C)C1")
7.60
>>> recorded_number("CC1(C)CCC(Nc2ncc(C(F)(F)F)c(-c3c[nH]c4c(P(C)(C)=O)c(C#N)ccc34)n2)CN1 (stereo not given) + C#Cc1c(F)ccc2cc(O)cc(-c3ncc4c(N5CC6CCC(C5)N6)nc(OCC56CCCN5CC(F)C6)nc4c3F)c12")
7.65
>>> recorded_number("Cc1nc(N2CCC3(CC2)COC(C)C3N)c(CO)nc1Sc1ccnc(N)c1Cl (stereo not given) + C#Cc1c(F)ccc2cc(O)cc(-c3ncc4c(N5CC6CCC(C5)N6)nc(OCC56CCCN5CC(F)C6)nc4c3F)c12")
5.06

API: the following record is the query input.
Q: What value of pIC50 has been reported for the following compound? CC(Nc1ccc2c(c1)OCCn1cc(N3C(=O)OCC3C(F)F)nc1-2)C(N)=O (stereo not given) + C=CC(=O)N1CCN(c2nc(OCC3CCCN3C)nc3c(F)c(-c4nc(N)cc(C)c4C(F)(F)F)c(Cl)cc23)C(C)C1
Result: 7.02
